Test system: RPMI-8226
Assay: NCI tumour cell line growth inhibition, 48 h
Calls of active or inactive are those of the source. No stated cut-off is given here; in the data, active = GI50 up to about 1.1 µM and inactive = higher.
The categories you may choose from are y (active), n (inactive)

C=C1C(C2(C)C(OC(C)=O)CC(=O)OC(C)(COC(C)=O)C2CC(=O)OC)C(OC=O)C(OC(=O)C(O)C(C)CC)C2(C)C(c3ccoc3)CC(=O)C12O (stereo not given)
n
CC(=O)OC1=CC2=CC[C@H]3[C@@H]4CCC(=O)[C@@]4(C)CC(=O)[C@]3(S)[C@@]2(C)CC1
n

Task: Hi team, can someone confirm the assay call for `COC(=O)/C(=C\c1ccco1)P(=O)(OC)OC` ?
Output: n

Task: Hi team, can someone confirm the assay call for NC(CSC(=O)c1ccccc1)C(=O)O (stereo not given) ?
Output: n

Task: Hi team, can someone confirm the assay call for `CCc1c(Cl)nc(Cl)nc1Cl` ?
Output: y

Task: Hi team, can someone confirm the assay call for `Cn1cnc([N+](=O)[O-])c1Sc1nc(N)nc2c1ncn2Cc1ccccc1` ?
Output: n

Task: Hi team, can someone confirm the assay call for O=C(CC(O)(C(F)(F)F)C(F)(F)Cl)CC(O)(C(F)(F)F)C(F)(F)Cl (stereo not given) ?
Output: n

Task: Hi team, can someone confirm the assay call for `C[C@]1(O)CC(=O)c2c(c(-c3ccc4cc5c(c(O)c4c3O)C(=O)C[C@@](C)(O)C5)c3cccc(O)c3c2O)C1` ?
Output: n

Task: Hi team, can someone confirm the assay call for CCN(CC)CC1CCCCN1CC(=O)N1CC(C)C(=O)Nc2ccccc21 (stereo not given) ?
Output: n

Task: Hi team, can someone confirm the assay call for `C[N+](C)(CCNC(=O)c1cccc2cc3ccccc3nc12)Cc1ccc([N+](=O)[O-])cc1` ?
Output: n

* * *

System: RXF 393
Test: NCI tumour cell line growth inhibition, 48 h
The source made the active and inactive calls. Rule as the data show it: active = GI50 up to about 1.1 µM and inactive = higher.
The categories you may choose from are true (1) = active, false (0) = inactive

CCOC(=O)C(SCCO)C(C(=O)OCC)n1cnc2c(N)ncnc21 (stereo not drawn)
false (0)

Now consider a different compound.
Task: Hi team, can someone confirm the assay call for CC(=O)C1C(=O)C(=O)N(c2ccc([N+](=O)[O-])cc2[N+](=O)[O-])C1=O (stereo not drawn) ?
Output: false (0)

* * *

Test system: SK-MEL-2
Experiment: NCI tumour cell line growth inhibition, 48 h
The source made the active and inactive calls. No stated cut-off is given here; in the data, active = GI50 up to about 1.1 µM and inactive = higher.
For each of the compounds below, state its GI50.

Recorded results for 5 compounds are shown here.
N#CC1(Cc2ccccc2[N+](=O)[O-])c2ccccc2C2C(N1C(=O)c1ccccc1)C2(Cl)Cl (configuration not stated)
> 100 µM (inactive)
N#CC(C(=O)/C(=N/NC(=O)c1ccccc1O)C(C#N)c1ccc(Br)cc1)c1ccc(Br)cc1 (configuration not stated)
12.2 µM (inactive)
c1cc2ccc3cc4ncccc4c4ccc(c1)c2c34
16.6 µM (inactive)
N#CC(C(=O)/C(=N/NC(=O)c1ccccc1O)C(C#N)c1ccccc1)c1ccccc1 (configuration not stated)
> 100 µM (inactive)
CC1=C(C(=O)Nc2ccccc2C)C(c2ccccc2)C(C(=O)Nc2ccccc2C)=C(C)N1
26.6 µM (inactive)

// batch mode: one GI50 value per listed entry
1. O=C1Sc2cc3ccccc3cc2C(=O)Sc2cc3ccccc3cc21
2. CC1=CC(=O)/C(=C/NC(=S)C(N)=S)C(=O)O1
3. CCN(CC)CC(=O)Nc1c(C(N)=O)nnn1Cc1cc(Cl)c(C(=O)c2ccc(Cl)cc2)c(Cl)c1
4. N#C/C(=C\c1ccc(O)c(O)c1)C(N)=O

Output:
1: 23 µM (inactive); 2: > 100 µM (inactive); 3: 14.9 µM (inactive); 4: > 100 µM (inactive)

// batch mode: one GI50 value per listed entry
1. C=CCN1C(=O)/C(=C/c2ccccc2)N=C1SC1OC(COC(=O)c2ccccc2)C(OC(=O)c2ccccc2)C1OC(=O)c1ccccc1 (configuration not stated)
2. CN(C(=O)C12C3C4C1C1C2C3C41I)C(C)(C)C (configuration not stated)
3. C(#C[C@@]12CCC[C@@H]1N(Cc1ccccc1)CO2)c1ccc2c(c1)OCO2
4. C[N+](C)(C)CC(=O)N/N=C(\C(=O)Nc1ccc(Cl)cc1)C1C(=O)N(c2ccccc2)N=C1N (configuration not stated)
5. CN1C(=O)C(C)(C)C2(SC(C)(C)C2(C)C)N(C)C1=S (configuration not stated)

Output:
> 100 µM (inactive)
> 100 µM (inactive)
> 100 µM (inactive)
> 100 µM (inactive)
> 100 µM (inactive)

// batch mode: one GI50 value per listed entry
1. Cc1c/c(=N\c2ccc3c(c2)c(N)cc(C)[n+]3C)nc(N)n1C
2. CCOC(=O)C(SCCO)C(C(=O)OCC)n1cnc2c(N)ncnc21 (configuration not stated)
3. COc1ccc(/C(=N\Nc2ccccn2)c2ccccn2)cc1
4. CC(C)(C)c1ccc(-c2nc3ccccc3c(=O)o2)cc1
5. N#Cc1c(N2CCCC2)nsc1Nc1ccccc1
6. COc1ccc(-c2cc(O)c3cc(C)cnc3n2)cc1
7. CC1=CC(=O)/C(=C/N2C(=O)CNC2=S)C(=O)O1
8. CC(=O)Oc1ccc2c(c1)c1c(OC(C)=O)c3ccccc3c(OC(C)=O)c1n2Cc1cccc(C)c1

Output:
1. > 100 µM (inactive)
2. 15.8 µM (inactive)
3. 3.37 µM (inactive)
4. 22.8 µM (inactive)
5. > 100 µM (inactive)
6. 3.5 µM (inactive)
7. > 100 µM (inactive)
8. 20 µM (inactive)

* * *

Tested on: COLO 205
Assay: NCI tumour cell line growth inhibition, 48 h
Calls of active or inactive are those of the source. Rule as the data show it: active = GI50 up to about 1.1 µM and inactive = higher.
ENDPOINT: GI50

Recorded results for 5 compounds are shown here.
c1cc2ccc3cc4ncccc4c4ccc(c1)c2c34
9.82 µM (inactive)
O=C(Nc1ccc([N+](=O)[O-])cc1C(=O)O)c1ccc([N+](=O)[O-])cc1
> 10 µM (inactive)
CCC1([N+](=O)[O-])CN(N=O)C1
> 100 µM (inactive)
Nc1cc(S(N)(=O)=O)ccc1SSc1ccc(S(N)(=O)=O)cc1N
> 100 µM (inactive)
C1CSC2=C(S1)SC1=C(S2)SC(=C2SC3=C(SC4=C(SCCS4)S3)S2)S1
> 100 µM (inactive)

// batch mode: one GI50 value per listed entry
1. COc1cccc(NC(=O)CC(=O)N2NC(C)C(/N=N/c3cccc(C(=O)O)c3)C2=O)c1 (stereo not given)
2. COC(=O)C(CCSC)NC(=O)Cc1ccc(C(=O)c2ccccc2)cc1 (stereo not given)
3. C=C(C)[C@H]1C2=CC(C)=C(O2)[C@@H](O)[C@H](C(=C)C)CCC2=C[C@H]1OC2=O [KALLOLIDE A]
4. CC(C)(C)[C@H]1CO[C@]2(c3ccccc3)[C@@H]3C[C@@H]3C(=O)N12
5. O=C1OC(c2ccccc2)=N/C1=C/NC(CS)C(=O)O (stereo not given)
6. O=[N+]([O-])c1ccc(/C(Cl)=C/c2ccc(/C=C(\Cl)c3ccc([N+](=O)[O-])cc3[N+](=O)[O-])cc2)c([N+](=O)[O-])c1
7. O=C1C(c2ccccc2)=C(O)c2cccc3cccc1c23
8. Cc1c/c(=N\c2ccc3c(c2)c(N)cc(C)[n+]3C)nc(N)n1C

Output:
1. > 100 µM (inactive)
2. > 100 µM (inactive)
3. > 100 µM (inactive)
4. > 100 µM (inactive)
5. > 100 µM (inactive)
6. > 100 µM (inactive)
7. > 100 µM (inactive)
8. > 100 µM (inactive)

* * *

Tested on: SK-MEL-28
Assay: NCI tumour cell line growth inhibition, 48 h
The source made the active and inactive calls. Cut-off read from the data, not from the text of the source: active = GI50 up to about 1.1 µM and inactive = higher.
The categories you may choose from are active, inactive

Some solved cases for reference:
NC(=S)N/N=C1/C(=O)N(c2ccc(Cl)cc2Cl)C(=O)C(=O)C1c1nc2ccccc2s1 (stereo unspecified)
inactive
O/N=C1/CCCC/C1=C/C=C/c1ccccc1
inactive
O=C(NC1C(=O)NNC1c1ccccc1Cl)c1ccccc1 (stereo unspecified)
inactive

Task: Hi team, can someone confirm the assay call for COc1cc(C2C=C(c3ccccc3)Oc3cc4c(cc32)OCO4)cc(OC)c1OC (stereo unspecified) ?
Output: active

Task: Hi team, can someone confirm the assay call for `N/C(=N\Nc1ccc(Cl)cc1)c1cnccn1` ?
Output: inactive

Task: Hi team, can someone confirm the assay call for `COC(=O)C(C(=O)Cc1ccccc1[N+](=O)[O-])C(=O)OC` ?
Output: inactive

* * *

For each of the compounds below, state its GI50.
Tested on: U-251
Experiment: NCI tumour cell line growth inhibition, 48 h
Active and inactive are the calls of the source. Cut-off read from the data, not from the text of the source: active = GI50 up to about 1.1 µM and inactive = higher.

O=c1[nH]cnc2c(COCCO)c[nH]c12
> 100 µM (inactive)

// batch mode: one GI50 value per listed entry
1. CC/C(CC(=O)CCC(=O)Nc1ccc(C)c(C)c1)=N\NC(=O)c1cc2ccccc2cc1O
2. CC(=O)OC(CC1(C)C(C)CCC23COC(=O)C2=CCCC31)c1ccoc1 (stereo not given)
3. CCS(=O)(=O)c1c2cc(OC)ccc2nc2ccc(OC)cc12
4. c1ccc(CCCNc2nnnc3ccccc23)cc1

Output:
["28.8 µM (inactive)", "15.8 µM (inactive)", "> 100 µM (inactive)", "> 100 µM (inactive)"]
